Cited source: ChEMBL document CHEMBL1146925

Target under test: D(2) dopamine receptor (Homo sapiens, UniProt P14416)
Sequence (P14416 whole entry): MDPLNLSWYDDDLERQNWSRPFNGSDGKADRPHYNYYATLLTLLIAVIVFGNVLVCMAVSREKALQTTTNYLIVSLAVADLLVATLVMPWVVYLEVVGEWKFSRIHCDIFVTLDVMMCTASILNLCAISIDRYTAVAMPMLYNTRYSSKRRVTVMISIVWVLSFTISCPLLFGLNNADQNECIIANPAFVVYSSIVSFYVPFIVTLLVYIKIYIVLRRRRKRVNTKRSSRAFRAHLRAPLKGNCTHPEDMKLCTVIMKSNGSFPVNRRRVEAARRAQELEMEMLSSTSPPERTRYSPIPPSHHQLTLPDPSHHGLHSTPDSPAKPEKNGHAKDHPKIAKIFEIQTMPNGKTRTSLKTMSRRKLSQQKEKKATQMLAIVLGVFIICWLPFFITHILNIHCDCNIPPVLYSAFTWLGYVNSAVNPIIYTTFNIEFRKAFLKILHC
Experiment: Binding affinity to cloned human dopamine D2 receptor
Answer each item with its documented pKi.
Numbers only, as −log10 of the molar value.

>>> recorded_result("CC(C)(C)CNC(=O)NCCCCN1CCN(c2cc(C(F)(F)F)nc(C(C)(C)C)n2)CC1")
7.04
>>> recorded_result("CC(C)(C)c1nc(N2CCN(CCCCNC(=O)NCCc3ccccc3)CC2)cc(C(F)(F)F)n1")
6.63
>>> recorded_result("Cc1ccn(CCCCN2CCN(c3cc(C(F)(F)F)nc(C(C)(C)C)n3)CC2)c(=O)c1")
7.20
>>> recorded_result("CC(C)(C)c1nc(N2CCN(CCCCn3cc(C(F)(F)F)ccc3=O)CC2)cc(C(F)(F)F)n1")
6.40
>>> recorded_result("CC(C)(C)c1nc(N2CCN(CCCCNC(=O)NCc3ccccc3)CC2)cc(C(F)(F)F)n1")
6.86

Need pKi for each of these molecules.
1. CC(C)(C)c1nc(N2CCN(CCCCn3ccc(-c4ccccc4)cc3=O)CC2)cc(C(F)(F)F)n1
2. CCN(Cc1ccccc1)C(=O)NCCCCN1CCN(c2cc(C(F)(F)F)nc(C(C)(C)C)n2)CC1
3. CCN(CC)C(=O)NCCCCN1CCN(c2cc(C(F)(F)F)nc(C(C)(C)C)n2)CC1
4. CC(C)(C)c1nc(N2CCN(CCCCn3ccc(C(F)(F)F)nc3=O)CC2)cc(C(F)(F)F)n1
5. CC(C)(C)c1nc(N2CCN(CCCCn3ccc(O)cc3=O)CC2)cc(C(F)(F)F)n1
6. CC(C)(C)c1nc(N2CCN(CCCCNC(=O)Nc3ccccc3)CC2)cc(C(F)(F)F)n1

# output
1. 6.28
2. 6.67
3. 7.76
4. 6.03
5. 7.59
6. 7.23

# input Record request: pKi value, item `CC(C)(C)c1nc(N2CCN(CCCCn3ccc(C(F)(F)F)cc3=O)CC2)cc(C(F)(F)F)n1`
# output 6.64

----------
Target under test: D(2) dopamine receptor (Homo sapiens, UniProt P14416)
Experiment: Binding affinity to cloned human dopamine D2 receptor
Provide the recorded pKi for the entries that follow.
Answers are plain numbers, as −log10 of the molar value.

>>> recorded_result("CC(C)(C)c1nc(N2CCN(CCCCn3cccc(C(F)(F)F)c3=O)CC2)cc(C(F)(F)F)n1")
6.39
>>> recorded_result("CC(C)(C)c1nc(N2CCN(CCCCNC(=O)NCC3CCCCC3)CC2)cc(C(F)(F)F)n1")
6.80

Consider now this further molecule.
# input Any idea what pKi was measured for `COc1cccn(CCCCN2CCN(c3cc(C(F)(F)F)nc(C(C)(C)C)n3)CC2)c1=O` ?
# output 6.77
